# Tested on: 496974-208-R-J2-PDC complex spheroids, growth % test/control;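 note: spheroids exposed to the drugs for 7 days before readout; 100% = DMSO vehicle control wells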
# experiment: Anticancer human tumor 496974-208-R-J2-PDC patient-derived pancreatic carcinoma cell line growth inhibition [CLK]
# test settings: second compound 0.1 µM; first compound 0.1 µM; stronger effect = lower value
Listed below: viability, T/C values for each entry.
A number alone suffices; assume %.

Answered cases to consult:
Nc1ccn(C2OC(CO)C(O)C2(F)F)c(=O)n1 (centres undefined) + CN1CCN(c2cc(C(=O)Nc3cc4cc(-c5cnn(C)c5)ccc4cn3)ccn2)CC1 : 57.8
COc1cccc2c1C(=O)c1c(O)c3c(c(O)c1C2=O)CC(O)(C(=O)CO)CC3OC1CC(N)C(O)C(C)O1 (centres undefined) + CNC(=O)c1ccc(Nc2nc(OC3CCCC3)c3c(-c4ccc5nc(C)oc5c4)c[nH]c3n2)c(OC)c1 : 66.1
CC(CO)NC(=O)c1cc(-c2ccc(Cl)cc2)nn(-c2cnn(C)c2)c1=O (centres undefined) + CNC(=O)c1ccc(Nc2nc(OC3CCCC3)c3c(-c4ccc5nc(C)oc5c4)c[nH]c3n2)c(OC)c1 : 74.5

// lookup viability, T/C for COc1c(OCCCN2CCOCC2)ccc2c3n(c(=NC(=O)c4cnc(N)nc4)nc12)CCN3 + CNC(=O)c1ccc(Nc2nc(OC3CCCC3)c3c(-c4ccc5nc(C)oc5c4)c[nH]c3n2)c(OC)c1
16.1

Okay, and COc1c(OCCCN2CCOCC2)ccc2c3n(c(=NC(=O)c4cnc(N)nc4)nc12)CCN3 + CN1CCN(c2cc(C(=O)Nc3cc4cc(-c5cnn(C)c5)ccc4cn3)ccn2)CC1 ?
11.5

Provenance of the data: PubChem BioAssay AID2060615
